The following compounds are listed with their measured pEC50 values.
Target: GLP1R (Homo sapiens, UniProt P43220)
Sequence (P43220 24-463): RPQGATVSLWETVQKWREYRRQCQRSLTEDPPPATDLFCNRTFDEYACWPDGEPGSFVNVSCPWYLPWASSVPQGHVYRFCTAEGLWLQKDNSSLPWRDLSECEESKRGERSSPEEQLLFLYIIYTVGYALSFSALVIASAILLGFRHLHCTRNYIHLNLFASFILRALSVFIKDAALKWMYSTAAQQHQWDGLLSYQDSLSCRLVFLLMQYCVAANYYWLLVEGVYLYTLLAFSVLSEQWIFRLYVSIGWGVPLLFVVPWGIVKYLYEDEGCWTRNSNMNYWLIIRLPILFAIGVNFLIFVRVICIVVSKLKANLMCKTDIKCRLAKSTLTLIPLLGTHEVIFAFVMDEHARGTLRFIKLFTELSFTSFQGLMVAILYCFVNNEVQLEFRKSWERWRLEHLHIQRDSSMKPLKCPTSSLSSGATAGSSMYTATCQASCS
Test: GLP1R cAMP assay (HTRF), HEK293/GLP-1R/CRE/Luc, Clone 4
pEC50: −log10 of the molar value.

{"columns": ["Chemical structure", "pEC50"],
 "data": [
  ["O=C(O)c1ccc2nc(Cc3ccc(-c4cc(OCc5ccc(Cl)cc5F)ccc4F)c(F)c3)n(C[C@@H]3CCO3)c2c1", "6.82 to 7.82"],
  ["O=C(O)c1ccc2nc(Cc3cc(F)c(-c4ncc(F)c(OCc5ccc(Cl)cn5)n4)cc3F)n(C[C@@H]3CCO3)c2n1", "> 7.82"],
  ["O=C(O)c1ccc2nc(Cc3ccc(-c4cccc(OCc5ccc(Cl)cc5F)n4)c(F)c3)n(C[C@@H]3CCO3)c2c1", "> 7.82"],
  ["O=C(O)c1ccc2nc(CN3CC=C(c4csnc4OCc4ccc(Cl)cc4F)CC3)n(C[C@@H]3CCO3)c2c1", "> 7.82"]
]}
